Numbers sourced from patent US20260184675A1.

# Tested on: eggs of Panonychus citri
# TEST SUMMARY: Effect on hatching of eggs of Panonychus citri, leaf disc method
# Assay type: in vivo
# EXPERIMENTAL CONTEXT: Panonychus citri eggs, 1 ppm, leaf disc, replicate 3
OBSERVED PROPERTY: Number of hatched larvae 5 days after insecticide delivery, Replicate 3
Lab note: record the figure alone, no unit after it.

Give the value of Number of hatched larvae 5 days after insecticide delivery, Replicate 3 reported for the following: CC[C@@H](COc1ccc(Cl)cc1Cl)OS(=O)OCCF (stereo partly drawn) [19-(S,R)]
0

Identify Number of hatched larvae 5 days after insecticide delivery, Replicate 3 associated with the molecule CC[C@H](COS(=O)OCCF)Oc1ccc(Cl)cc1Cl (stereo partly drawn) [19′-(R,S)]
9

Give recorded Number of hatched larvae 5 days after insecticide delivery, Replicate 3. CC(C)(COS(=O)OCCF)Oc1ccc(Cl)cc1Cl (stereo not shown) [S-10′]
0

Give the value of Number of hatched larvae 5 days after insecticide delivery, Replicate 3 reported for the following: CC(COc1ccc(Cl)cc1Cl)OS(=O)OCCF (stereo not shown) [Compound 1′]
0

====

# System: eggs of Harmonia axyridis
# TEST SUMMARY: Effect on hatching of eggs of Harmonia axyridis, egg card immersion
# Assay type: in vivo
# EXPERIMENTAL CONTEXT: Harmonia axyridis egg cards, 100 ppm, immersed 30 seconds, replicate 1
OBSERVED PROPERTY: Number of hatched larvae 4 days after insecticide delivery, Replicate 1

Specify reported Number of hatched larvae 4 days after insecticide delivery, Replicate 1 for the molecule shown: CC[C@H](COc1ccc(Cl)cc1Cl)OS(=O)OCCF (stereo partly drawn) [19-(R,S)]
0

Query Number of hatched larvae 4 days after insecticide delivery, Replicate 1 for CC(C)(COc1ccc(Cl)cc1Cl)OS(=O)OCCF (stereo not shown) [Compound S-10]
0

Answer with reported Number of hatched larvae 4 days after insecticide delivery, Replicate 1 of CC(C)(COc1ccc(Cl)cc1Cl)OS(=O)OCCF (stereo not shown) [Compound R-10]
15

Provide only the value of recorded Number of hatched larvae 4 days after insecticide delivery, Replicate 1 for CC[C@@H](COc1ccc(Cl)cc1Cl)OS(=O)OCCF (stereo partly drawn) [19-(S,R)]
0

Indicate the recorded Number of hatched larvae 4 days after insecticide delivery, Replicate 1 value for this molecule: CC(C)(COS(=O)OCCF)Oc1ccc(Cl)cc1Cl (stereo not shown) [Compound 10′]
5

# return recorded Number of hatched larvae 4 days after insecticide delivery, Replicate 1 for entry CCC(COc1ccc(Cl)cc1Cl)OS(=O)OCCF (stereo not shown)
3

Name the recorded Number of hatched larvae 4 days after insecticide delivery, Replicate 1 of the item CCC(COS(=O)OCCF)Oc1ccc(Cl)cc1Cl (stereo not shown) in your answer.
4

Entry CC(C)(COS(=O)OCCF)Oc1ccc(Cl)cc1Cl (stereo not shown) [S-10′] needs its Number of hatched larvae 4 days after insecticide delivery, Replicate 1 filled in; supply it.
0

Return the recorded Number of hatched larvae 4 days after insecticide delivery, Replicate 1 value; entry: CC(COc1ccc(Cl)cc1Cl)OS(=O)OCCF (stereo not shown)
6

For the molecule CC(COS(=O)OCCF)Oc1ccc(Cl)cc1Cl (stereo not shown) , give its reported Number of hatched larvae 4 days after insecticide delivery, Replicate 1.
7

State its Number of hatched larvae 4 days after insecticide delivery, Replicate 1: CC[C@H](COS(=O)OCCF)Oc1ccc(Cl)cc1Cl (stereo partly drawn) [19′-(R,S)]
11

For the molecule CC(C)(COS(=O)OCCF)Oc1ccc(Cl)cc1Cl (stereo not shown) [R-10′] , report Number of hatched larvae 4 days after insecticide delivery, Replicate 1.
17

Please report the measured Number of hatched larvae 4 days after insecticide delivery, Replicate 1 for CC(C)(COc1ccc(Cl)cc1Cl)OS(=O)OCCF (stereo not shown) [Compound 10]
4
